Target: PDE9 (Homo sapiens, UniProt O76083)
Sequence (O76083 whole entry): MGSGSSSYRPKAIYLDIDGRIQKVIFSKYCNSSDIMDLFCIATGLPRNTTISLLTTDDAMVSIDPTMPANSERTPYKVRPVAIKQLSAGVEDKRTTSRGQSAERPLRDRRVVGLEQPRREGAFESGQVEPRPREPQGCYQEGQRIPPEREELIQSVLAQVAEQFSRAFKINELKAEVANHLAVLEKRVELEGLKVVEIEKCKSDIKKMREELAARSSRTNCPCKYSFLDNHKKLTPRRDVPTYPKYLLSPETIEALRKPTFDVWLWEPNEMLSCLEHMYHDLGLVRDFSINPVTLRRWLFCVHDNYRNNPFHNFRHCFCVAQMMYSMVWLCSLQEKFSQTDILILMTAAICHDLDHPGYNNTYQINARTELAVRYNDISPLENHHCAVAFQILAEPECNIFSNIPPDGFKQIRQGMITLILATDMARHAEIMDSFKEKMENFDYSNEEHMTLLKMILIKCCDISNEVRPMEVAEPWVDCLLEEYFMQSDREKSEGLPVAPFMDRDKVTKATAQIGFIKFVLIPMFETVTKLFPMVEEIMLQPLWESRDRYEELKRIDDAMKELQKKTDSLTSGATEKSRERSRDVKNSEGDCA
Experiment: PDE9 inhibition assay, SPA with 3H-cAMP
Format: biochemical
Conditions: compound at 10 microM; 10 nM 3H-cAMP, 1 hr incubation
Method: A PDE9 assay may for example, be performed as follows: The assay is performed in 60 μL samples containing a fixed amount of the relevant PDE enzyme (sufficient to convert 20-25% of the cyclic nucleotide substrate), a buffer (50 mM HEPES7.6; 10 mM MgCl2; 0.02% Tween20), 0.1 mg/mL BSA, 225 pCi of ^3H-labelled cyclic nucleotide substrate, tritium labeled cAMP to a final concentration of 5 nM and varying amounts of inhibitors. […]
assay endpoint: % inhibition of PDE9 at 10 microM (%)
Give the number; % is assumed, so skip it.

Form field - read-out: % inhibition of PDE9 at 10 microM; system: PDE9 (Homo sapiens, UniProt O76083); submitted item: Cc1ccc(Cc2nn3c(C4CCOCC4)ncc3c(=O)n2CC2CCC(C)CC2)cc1 (single isomer, unassigned) [11 Stereoisomer 1] −9

Continue with Cc1ccc(Cc2nn3c(C4CCOCC4)ncc3c(=O)n2CC2CCOC2)cc1 (single isomer, unassigned) [12 Stereoisomer 1] 3

Continue with Cc1ccc(Cc2nn3c(C4CCOCC4)ncc3c(=O)n2CC2CCC(C)CC2)cc1 (single isomer, unassigned) [11 Stereoisomer 2] 15

Continue with Cc1ccc(Cc2nn3c(C4CCOCC4)ncc3c(=O)n2CC2CCOC2)cc1 (single isomer, unassigned) [12 Stereoisomer 2] 7

###

The following are reported pIC50 results, target or system PDE1C (Homo sapiens).
# pIC50 is unitless: minus log10 of the molar concentration; print number only

// query pIC50 value for entry `Cc1nn2c(C3CCOCC3)ncc2c(=O)n1Cc1ccc(Cl)cc1` 6.98

Continue with `O=c1c2cnc(C3CCOCC3)n2ncn1CC1CCCC1` 7.07

Continue with `Cc1ccc(Cn2c(C)nn3c(C4CCOCC4)ncc3c2=O)cc1` 7.11

Continue with `CCCn1c(Cc2ccc(C)cc2)nn2c(C3CCOCC3)ncc2c1=O` 7.21

Continue with `CCc1nn2c(C3CCOCC3)ncc2c(=O)n1Cc1cccc(F)c1` 7.82

Continue with `O=c1c2cnc(C3CCOCC3)n2ncn1Cc1cccc(F)c1` 6.36

Continue with `Cc1ccc(Cc2nn3c(C4CCOCC4)ncc3c(=O)n2CC2CCC2)cc1` 7.21

Continue with `Cc1ccc(Cc2nn3c(C4CCOCC4)ncc3c(=O)n2CC2CCOCC2)cc1` 7.64

Continue with Cc1ccc(Cc2nn3c(C4CCOCC4)ncc3c(=O)n2CC2CCOC2)cc1 (single isomer, unassigned) [12 Stereoisomer 2] 6.82

###

Biological target: PDE1C (Homo sapiens, UniProt Q14123)
Sequence (Q14123 whole entry): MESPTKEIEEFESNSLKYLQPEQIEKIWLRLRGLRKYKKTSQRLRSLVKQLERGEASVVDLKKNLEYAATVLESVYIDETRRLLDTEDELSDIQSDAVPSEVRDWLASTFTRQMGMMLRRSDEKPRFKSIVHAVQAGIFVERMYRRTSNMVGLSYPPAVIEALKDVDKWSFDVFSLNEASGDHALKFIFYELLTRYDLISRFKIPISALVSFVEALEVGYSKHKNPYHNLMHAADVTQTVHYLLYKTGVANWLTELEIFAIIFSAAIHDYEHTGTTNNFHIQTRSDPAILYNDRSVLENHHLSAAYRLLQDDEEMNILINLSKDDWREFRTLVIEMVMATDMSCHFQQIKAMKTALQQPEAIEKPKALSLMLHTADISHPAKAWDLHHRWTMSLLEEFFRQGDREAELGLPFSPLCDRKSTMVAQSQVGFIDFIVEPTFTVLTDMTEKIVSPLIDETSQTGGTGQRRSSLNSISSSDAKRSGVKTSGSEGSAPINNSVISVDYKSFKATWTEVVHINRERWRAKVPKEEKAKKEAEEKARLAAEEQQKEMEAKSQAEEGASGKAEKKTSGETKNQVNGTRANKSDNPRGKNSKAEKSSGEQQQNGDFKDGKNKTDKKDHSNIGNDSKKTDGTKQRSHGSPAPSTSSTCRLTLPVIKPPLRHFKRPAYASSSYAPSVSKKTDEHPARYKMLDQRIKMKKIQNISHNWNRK
Classification by IC50 follows these ranges: low bin (below 0.02 µM), mid bin (0.02 µM to below 0.08 µM), high bin (0.08 µM or more)

Bin this entry: Cc1nn2c(C3CCOCC3)ncc2c(=O)n1CC1CCCCC1 [Example 1] low bin

Continue with Cc1nn2c(C3CCOCC3)ncc2c(=O)n1Cc1ccc(F)cc1 [Example 14] mid bin

Continue with Cc1ccc(Cc2nn3c(C4CCOCC4)ncc3c(=O)n2CC2CCC(C)CC2)cc1 (single isomer, unassigned) [11 Stereoisomer 2] low bin

Continue with Cc1ccc(Cc2nn3c(C4CCOCC4)ncc3c(=O)n2CC2CCC(C)CC2)cc1 (single isomer, unassigned) [11 Stereoisomer 1] mid bin

Continue with CCn1c(Cc2ccc(C)cc2)nn2c(C3CCOCC3)ncc2c1=O [Example 3] high bin

Continue with Cc1nn2c(C3CCOCC3)ncc2c(=O)n1Cc1ccccc1F [Example 20] low bin

Continue with Cc1ccc(Cc2nn3c(C4CCOCC4)ncc3c(=O)n2CC2CCOC2)cc1 (single isomer, unassigned) [12 Stereoisomer 1] high bin

Continue with O=c1c2cnc(C3CCOCC3)n2ncn1CC1CCCCC1 [Example 26] high bin

###

Target: PDE1A (Homo sapiens, UniProt P54750)
Sequence (P54750 whole entry): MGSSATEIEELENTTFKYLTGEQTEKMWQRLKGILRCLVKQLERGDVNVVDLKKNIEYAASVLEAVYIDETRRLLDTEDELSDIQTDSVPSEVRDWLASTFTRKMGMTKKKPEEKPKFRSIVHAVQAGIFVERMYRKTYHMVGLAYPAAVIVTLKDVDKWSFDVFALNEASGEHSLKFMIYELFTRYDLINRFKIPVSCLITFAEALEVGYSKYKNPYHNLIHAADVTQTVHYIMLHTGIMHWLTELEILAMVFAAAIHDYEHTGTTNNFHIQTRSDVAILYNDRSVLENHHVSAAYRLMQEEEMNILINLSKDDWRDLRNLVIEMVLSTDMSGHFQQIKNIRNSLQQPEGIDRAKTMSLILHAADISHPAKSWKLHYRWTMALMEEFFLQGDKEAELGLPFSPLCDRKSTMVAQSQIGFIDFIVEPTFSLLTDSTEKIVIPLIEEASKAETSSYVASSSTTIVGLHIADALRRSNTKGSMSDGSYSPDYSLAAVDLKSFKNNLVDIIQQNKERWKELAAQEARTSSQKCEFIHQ
For each of the compounds below, state its IC50.
Give the number; µM is assumed, so skip it.

// query IC50 value for entry `Cc1ccc(Cc2nn3c(C4CCOCC4)ncc3c(=O)n2CC2CCCCC2)cc1` 0.04

Continue with `Cc1nn2c(C3CCOCC3)ncc2c(=O)n1Cc1ccccc1Cl` 0.118

Continue with `COc1cccc(Cn2c(C)nn3c(C4CCOCC4)ncc3c2=O)c1` 0.115

Continue with Cc1ccc(Cc2nn3c(C4CCOCC4)ncc3c(=O)n2CC2CCC(C)CC2)cc1 (single isomer, unassigned) [11 Stereoisomer 1] 0.043

###

Biological target: PDE1B (Homo sapiens)
Sequence (Q01064 whole entry): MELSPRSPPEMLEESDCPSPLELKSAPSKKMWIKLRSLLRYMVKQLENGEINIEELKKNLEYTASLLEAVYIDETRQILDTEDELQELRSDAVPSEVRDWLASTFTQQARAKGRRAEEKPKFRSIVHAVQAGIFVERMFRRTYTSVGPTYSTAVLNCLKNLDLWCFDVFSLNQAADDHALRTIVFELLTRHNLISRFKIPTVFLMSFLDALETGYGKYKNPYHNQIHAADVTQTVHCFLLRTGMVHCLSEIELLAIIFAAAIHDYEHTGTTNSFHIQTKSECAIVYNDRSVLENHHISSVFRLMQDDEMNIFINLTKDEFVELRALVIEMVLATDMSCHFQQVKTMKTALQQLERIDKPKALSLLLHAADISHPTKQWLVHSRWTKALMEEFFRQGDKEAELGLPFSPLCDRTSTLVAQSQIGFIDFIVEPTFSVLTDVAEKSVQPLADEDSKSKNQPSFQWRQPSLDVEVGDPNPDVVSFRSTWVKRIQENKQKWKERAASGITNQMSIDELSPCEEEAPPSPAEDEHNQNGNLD
I'd appreciate it if you marked entries yes when IC50 is lower than 70 nM and no when it is not.

I wonder whether `Cc1nn2c(C3CCOCC3)ncc2c(=O)n1Cc1cccc(Cl)c1` has IC50 below 70 nM. Can you tell? no

Continue with Cc1ccc(Cc2nn3c(C4CCOCC4)ncc3c(=O)n2CC2CCC(C)CC2)cc1 (single isomer, unassigned) [11 Stereoisomer 2] yes

Continue with Cc1ccc(Cc2nn3c(C4CCOCC4)ncc3c(=O)n2CC2CCOC2)cc1 (single isomer, unassigned) [12 Stereoisomer 2] yes

Continue with Cc1ccc(Cc2nn3c(C4CCOCC4)ncc3c(=O)n2CC2CCOC2)cc1 (single isomer, unassigned) [12 Stereoisomer 1] no

Continue with `Cc1ccccc1Cn1c(C)nn2c(C3CCOCC3)ncc2c1=O` no

Continue with `Cc1nn2c(C3CCOCC3)ncc2c(=O)n1CC1CCCCC1` yes

Continue with `Cc1cccc(Cn2c(C)nn3c(C4CCOCC4)ncc3c2=O)c1` no

Continue with `Cc1ccc(Cn2c(C)nn3c(C4CCOCC4)ncc3c2=O)cc1` yes

Continue with `Cc1nn2c(C3CCOCC3)ncc2c(=O)n1Cc1ccccc1` no

Continue with `COc1cccc(Cn2c(C)nn3c(C4CCOCC4)ncc3c2=O)c1` no

Continue with `Cc1ccc(Cc2nn3c(C4CCOCC4)ncc3c(=O)n2CC(C)C)cc1` yes

Continue with Cc1ccc(Cc2nn3c(C4CCOCC4)ncc3c(=O)n2CC2CCC(C)CC2)cc1 (single isomer, unassigned) [11 Stereoisomer 1] yes

Continue with `Cc1ccc(Cc2nn3c(C4CCOCC4)ncc3c(=O)n2CC2CCCC2)cc1` yes

###

Target: UniProt P54750
assay endpoint: pIC50
# pIC50 is unitless: minus log10 of the molar concentration; print number only

// query pIC50 value for entry `CCn1c(Cc2ccc(C)cc2)nn2c(C3CCOCC3)ncc2c1=O` 6.74

Continue with `O=c1c2cnc(C3CCOCC3)n2ncn1CC1CCCCC1` 6.26

Continue with `Cc1ccccc1Cn1c(C)nn2c(C3CCOCC3)ncc2c1=O` 6.44

Continue with `Cc1cccc(Cn2c(C)nn3c(C4CCOCC4)ncc3c2=O)c1` 6.58

Continue with `Cc1nn2c(C3CCOCC3)ncc2c(=O)n1Cc1ccc(F)cc1` 7.11

###

Target: UniProt P54750
For each of the compounds below, state its IC50.
Give the number; µM is assumed, so skip it.

// query IC50 value for entry Cc1ccc(Cc2nn3c(C4CCOCC4)ncc3c(=O)n2CC2CCC(C)CC2)cc1 (single isomer, unassigned) [11 Stereoisomer 2] 0.008

Continue with Cc1ccc(Cc2nn3c(C4CCOCC4)ncc3c(=O)n2CC2CCOC2)cc1 (single isomer, unassigned) [12 Stereoisomer 2] 0.1

Continue with `Cc1ccc(Cc2nn3c(C4CCOCC4)ncc3c(=O)n2CC2CCCC2)cc1` 0.029

###

Biological target: UniProtKB O76083
Experiment: PDE9 inhibition assay, SPA with 3H-cAMP
Type: biochemical
Details: compound at 10 microM; 10 nM 3H-cAMP, 1 hr incubation
assay endpoint: inhibition at 10 µM (%)
Give the number; % is assumed, so skip it.

// query inhibition at 10 µM value for entry Cc1ccc(Cn2c(C)nn3c(C4CCOCC4)ncc3c2=O)cc1 [Example 22] 18

Continue with Cc1cccc(Cn2c(C)nn3c(C4CCOCC4)ncc3c2=O)c1 [Example 18] -30

Continue with Cc1ccc(Cc2nn3c(C4CCOCC4)ncc3c(=O)n2C)cc1 [Example 2] 4

Continue with COc1cccc(Cn2c(C)nn3c(C4CCOCC4)ncc3c2=O)c1 [Example 19] 4

Continue with Cc1ccc(Cc2nn3c(C4CCOCC4)ncc3c(=O)n2CC(C)C)cc1 [Example 5] -3

Continue with Cc1nn2c(C3CCOCC3)ncc2c(=O)n1Cc1ccc(F)cc1 [Example 14] 18

Continue with Cc1nn2c(C3CCOCC3)ncc2c(=O)n1Cc1cccc(Cl)c1 [Example 17] 5

Continue with Cc1ccc(Cc2nn3c(C4CCOCC4)ncc3c(=O)n2CC2CCOCC2)cc1 [Example 9] 12

Continue with O=c1c2cnc(C3CCOCC3)n2ncn1CC1CCCC1 [Example 28] 10

Continue with Cc1ccccc1Cn1c(C)nn2c(C3CCOCC3)ncc2c1=O [Example 21] 13

Continue with Cc1nn2c(C3CCOCC3)ncc2c(=O)n1Cc1ccccc1F [Example 20] 21

Continue with O=c1c2cnc(C3CCOCC3)n2ncn1CC1CCCCCC1 [Example 29] 21

Continue with CCCn1c(Cc2ccc(C)cc2)nn2c(C3CCOCC3)ncc2c1=O [Example 4] 9

Continue with Cc1nn2c(C3CCOCC3)ncc2c(=O)n1Cc1ccccc1Cl [Example 16] 11

Continue with Cc1ccc(Cc2nn3c(C4CCOCC4)ncc3c(=O)n2CC2CCCCC2)cc1 [Example 7] 11

Continue with Cc1ccc(Cc2nn3c(C4CCOCC4)ncc3c(=O)n2CC2CCC2)cc1 [Example 10] -11

Continue with Cc1nn2c(C3CCOCC3)ncc2c(=O)n1Cc1ccc(Cl)cc1 [Example 24] -11

Continue with Cc1nn2c(C3CCOCC3)ncc2c(=O)n1CC1CCCCC1 [Example 1] 26

Continue with Cc1ccc(Cc2nn3c(C4CCOCC4)ncc3c(=O)n2CC2CCCC2)cc1 [Example 6] 2

Continue with COc1ccc(Cn2c(C)nn3c(C4CCOCC4)ncc3c2=O)cc1 [Example 23] -4

Continue with Cc1ccc(Cc2nn3c(C4CCOCC4)ncc3c(=O)n2CC2CC2)cc1 [Example 8] 9

Continue with O=c1c2cnc(C3CCOCC3)n2ncn1CC1CCCCC1 [Example 26] 8

Continue with Cc1nn2c(C3CCOCC3)ncc2c(=O)n1Cc1cccc(F)c1 [Example 13] -4

Continue with CCc1nn2c(C3CCOCC3)ncc2c(=O)n1Cc1cccc(F)c1 [Example 25] 8

Continue with CCn1c(Cc2ccc(C)cc2)nn2c(C3CCOCC3)ncc2c1=O [Example 3] 15

Continue with Cc1nn2c(C3CCOCC3)ncc2c(=O)n1Cc1ccccc1 [Example 15] -13

Continue with O=c1c2cnc(C3CCOCC3)n2ncn1Cc1cccc(F)c1 [Example 27] 17
